tested on: Cryptococcus neoformans; conditions: Concentration 32 ug.mL-1; ASSAY_TEST Inhibition of Fungal Growth; detection method Resazurin; Absorption (OD600-OD570); plate type 384well; NBS; CORNING #3640
Description: Antifungal activity against Cryptococcus neoformans H99 ATCC 208821 (CO-ADD:FG_002); MIC in YNB media using NBS plates, by Resazurin OD(600-570)
Potency and affinity values are given separately.
outcome-measure: Inhibition
Returns: string containing the numeric result and its unit.

Example entries begin here.
What value of measured Inhibition is listed for Oc1ccc(O)c(-c2cn(-c3ccc(O)c(O)c3)nn2)c1 ?
-118.29%

Ok, now O=C(Nc1ccc(O)cc1O)Nc1cc(O)ccc1O
15.83%

Ok, now O=C(OCc1ccccc1)N1C(=O)C(c2ccccc2NC(=O)C(F)(F)F)=C(O)C1Cc1ccccc1 (stereo unspecified)
-95.18%

***
What value of measured Inhibition is listed for COc1ccc(OC)c(C(=O)CCc2ccc(O)cc2)c1 ?
-66.83%

Ok, now COC(=O)c1c(C(Cc2ccccc2)NC(=O)OCc2ccccc2)[nH]c2ccccc12 (stereo unspecified)
-63.52%

Ok, now COc1ccc(OC)c(NC(=O)Nc2ccc(OC)cc2OC)c1
-79.12%

###

test system: Cryptococcus neoformans; conditions: Concentration 32 ug.mL-1; ASSAY_TEST Inhibition of Fungal Growth; detection method Resazurin; Absorption (OD600-OD570); plate type 384well; NBS; CORNING #3640
Potency and affinity values are given separately.
Binary label based on Inhibition with cut-off -80%: below gives rule met, not below gives rule not met.

Here's what some known entries look like.
Would you kindly verify if Inhibition of COc1ccc(OC)c(C(=O)/C=C/c2ccc(O)cc2)c1 is strictly less than -80%?
rule not met

Ok, now CC1C(=O)N(Cc2ccc(OCCN3CCOCC3)cc2)C1(Cc1ccccc1)C(=O)O (stereo not given)
rule not met

Ok, now O=C(CCc1ccc(O)cc1O)c1cc(O)ccc1O
rule not met

Would you kindly look at the next entry?
Would you kindly verify if Inhibition of O=C(/C=C/c1c[nH]c2ccc(O)cc12)c1cc(O)ccc1O is strictly less than -80%?
rule met

###

test system: Klebsiella pneumoniae; details: Concentration 32 ug.mL-1; ASSAY_TEST Inhibition of Bacterial Growth; detection method Absorption (OD600); MEDIA CAMHB; plate type 384well; NBS; CORNING #3640; time 18 hr
Description: Antibacterial activity against Klebsiella pneumoniae MDR ATCC 70063 (CO-ADD:GN_003); MIC in CAMBH media using NBS plates, by OD(600)
Measured potencies and affinities stand elsewhere.
outcome-measure: Inhibition
Returns: string containing the numeric result and its unit.

Example entries begin here.
What value of measured Inhibition is listed for COc1ccc(OC)c(NC(=O)Nc2ccc(OC)cc2OC)c1 ?
6.68%

Ok, now Oc1ccc(O)c(-c2cn(-c3ccc(O)c(O)c3)nn2)c1
-0.99%

Ok, now COc1ccc(OC)c(C(=O)CCc2ccc(O)cc2)c1
3.34%

Ok, now COc1ccc(NC(=O)Cc2cc(OC)ccc2OC)cc1
9.76%

Ok, now COc1ccc(C(=O)/C=C/c2ccc(OC)cc2OC)cc1
-4.58%

***
What value of measured Inhibition is listed for COc1ccc(OC)c(C(=O)CCc2ccccc2O)c1 ?
4.74%

Ok, now O=C(Nc1ccc(O)cc1O)Nc1cc(O)ccc1O
9.23%

Ok, now O=C(CCc1ccc(O)cc1O)c1cc(O)ccc1O
10.96%

Ok, now COc1ccc(OC)c(C(=O)/C=C/c2ccccc2O)c1
-4.68%

Ok, now O=C(/C=C/c1ccccc1O)c1cc(O)c(O)cc1O
21.23%

Ok, now COc1ccc(OC)c(C(=O)/C=C/c2ccc(O)cc2)c1
-6.02%

###

system: Cryptococcus neoformans; settings: Concentration 32 ug.mL-1; ASSAY_TEST Inhibition of Fungal Growth; detection method Resazurin; Absorption (OD600-OD570); plate type 384well; NBS; CORNING #3640
Measured potencies and affinities stand elsewhere.
outcome-measure: Inhibition (%)
Value expressed in %; do not type the unit.

What is its Inhibition for Cryptococcus neoformans? Entry: O=C(Cc1cc(O)ccc1O)Nc1ccc(O)cc1O
-73.31

Ok, now COc1ccc(NC(=O)Cc2cc(OC)ccc2OC)cc1
-67.4

Ok, now COc1ccc(OC)c(-c2cn(-c3ccc(OC)c(OC)c3)nn2)c1
-110.55

Ok, now O=C(/C=C/c1ccccc1O)c1cc(O)c(O)cc1O
-81.74

***
What is its Inhibition for Cryptococcus neoformans? Entry: O=C(Cc1cc(O)ccc1O)Nc1ccc(O)cc1
-32.05

Ok, now COc1ccc(OC)c(C(=O)/C=C/c2ccccc2O)c1
-71.16

Ok, now COc1ccc(OC)c(CC(=O)Nc2ccc(OC)cc2OC)c1
-87.08

###

tested on: Candida albicans; settings: 32 ug/mL
Description: Antifungal activity against Candida albicans ATCC 90028 (CO-ADD:FG_001); MIC in YNB media using NBS plates, by OD630
Potency and affinity values are given separately.
outcome-measure: Inhibition (%)
Value expressed in %; do not type the unit.

Example entries begin here.
What value of measured Inhibition is listed for O=C(/C=C/c1ccccc1O)c1cc(O)c(O)cc1O ?
6.47

Ok, now O=C(CCc1ccc(O)cc1O)c1cc(O)ccc1O
3.81

Ok, now COc1ccc(OC)c(NC(=O)Nc2ccc(OC)cc2OC)c1
-0.5

Ok, now COc1ccc(OC)c(C(=O)/C=C/c2ccccc2O)c1
16.8

Ok, now COC(=O)C1(Cc2ccc(OCc3c(Cl)cccc3Cl)cc2)C(C)C(=O)N1Cc1ccc(OC)cc1 (centres undefined)
7.8

***
What value of measured Inhibition is listed for O=C(Nc1ccc(O)cc1O)Nc1cc(O)ccc1O ?
-2.25

Ok, now Oc1ccc(O)c(-c2cn(-c3ccc(O)c(O)c3)nn2)c1
3.17

Ok, now COC(=O)c1c(C(Cc2ccccc2)NC(=O)OCc2ccccc2)[nH]c2ccccc12 (centres undefined)
0.58

Ok, now COc1ccc(OC)c(CC(=O)Nc2cc(OC)ccc2OC)c1
6.79

###

test system: Klebsiella pneumoniae; conditions: Concentration 32 ug.mL-1; ASSAY_TEST Inhibition of Bacterial Growth; detection method Absorption (OD600); MEDIA CAMHB; plate type 384well; NBS; CORNING #3640; time 18 hr
Entries with a potency or affinity are not part of this list.
Inhibition values, listed per item
Value expressed in %; do not type the unit.

What value of measured Inhibition is listed for COc1ccc(OC)c(CC(=O)Nc2cc(OC)ccc2OC)c1 ?
5.13

Ok, now COc1ccc(OC)c(CC(=O)Nc2ccc(OC)cc2OC)c1
9.85

Ok, now COc1ccccc1/C=C/C(=O)c1cc(OC)c(OC)cc1OC
12.89

***
What value of measured Inhibition is listed for COc1ccc(OC)c(-c2cn(-c3ccc(OC)c(OC)c3)nn2)c1 ?
-16.63

Ok, now COc1ccc(CN2C(=O)C(C)C2(Cc2cn(C(=O)OC(C)(C)C)c3ccccc23)C(=O)OC(C)(C)C)cc1 (configuration not stated)
15.95

Ok, now O=C(/C=C/c1c[nH]c2ccc(O)cc12)c1cc(O)ccc1O
6.02

Ok, now O=C(OCc1ccccc1)N1C(=O)C(c2ccccc2NC(=O)C(F)(F)F)=C(O)C1Cc1ccccc1 (configuration not stated)
7.86
